target: T1, human programmed death-ligand 1 (PDL1) receptor, extracellular portion (human, UniProt Q9NZQ7 19-238); assay: Octet (BLI), steady state analysis
T1 construct: extracellular domain; also called human PDL1
T1 sequence (Q9NZQ7 19-238): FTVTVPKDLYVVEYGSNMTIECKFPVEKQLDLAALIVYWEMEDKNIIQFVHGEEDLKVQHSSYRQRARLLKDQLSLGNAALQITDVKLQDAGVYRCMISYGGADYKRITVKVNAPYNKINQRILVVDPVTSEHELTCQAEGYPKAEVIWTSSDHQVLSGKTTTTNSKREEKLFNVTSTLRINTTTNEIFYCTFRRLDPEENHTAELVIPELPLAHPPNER
measurement-name: pKd
Here pKd is given on a logarithmic scale as minus log10 of the concentration in mol/L.

get_value(item= PDL1Bind_cb6 (designed binder, Optimized de novo miniprotein against human PDL1) DEDTDRVFELLNEFNELREEGDPERAREVLEEAERLAKELSDPTLESFVQAIKRVY , readout=pKd) returns 8.70
